testedTarget: LFA-1 binding to ICAM-1 (Homo sapiens, UniProt P05107+P20701)
Sequence (P20701 26-1170): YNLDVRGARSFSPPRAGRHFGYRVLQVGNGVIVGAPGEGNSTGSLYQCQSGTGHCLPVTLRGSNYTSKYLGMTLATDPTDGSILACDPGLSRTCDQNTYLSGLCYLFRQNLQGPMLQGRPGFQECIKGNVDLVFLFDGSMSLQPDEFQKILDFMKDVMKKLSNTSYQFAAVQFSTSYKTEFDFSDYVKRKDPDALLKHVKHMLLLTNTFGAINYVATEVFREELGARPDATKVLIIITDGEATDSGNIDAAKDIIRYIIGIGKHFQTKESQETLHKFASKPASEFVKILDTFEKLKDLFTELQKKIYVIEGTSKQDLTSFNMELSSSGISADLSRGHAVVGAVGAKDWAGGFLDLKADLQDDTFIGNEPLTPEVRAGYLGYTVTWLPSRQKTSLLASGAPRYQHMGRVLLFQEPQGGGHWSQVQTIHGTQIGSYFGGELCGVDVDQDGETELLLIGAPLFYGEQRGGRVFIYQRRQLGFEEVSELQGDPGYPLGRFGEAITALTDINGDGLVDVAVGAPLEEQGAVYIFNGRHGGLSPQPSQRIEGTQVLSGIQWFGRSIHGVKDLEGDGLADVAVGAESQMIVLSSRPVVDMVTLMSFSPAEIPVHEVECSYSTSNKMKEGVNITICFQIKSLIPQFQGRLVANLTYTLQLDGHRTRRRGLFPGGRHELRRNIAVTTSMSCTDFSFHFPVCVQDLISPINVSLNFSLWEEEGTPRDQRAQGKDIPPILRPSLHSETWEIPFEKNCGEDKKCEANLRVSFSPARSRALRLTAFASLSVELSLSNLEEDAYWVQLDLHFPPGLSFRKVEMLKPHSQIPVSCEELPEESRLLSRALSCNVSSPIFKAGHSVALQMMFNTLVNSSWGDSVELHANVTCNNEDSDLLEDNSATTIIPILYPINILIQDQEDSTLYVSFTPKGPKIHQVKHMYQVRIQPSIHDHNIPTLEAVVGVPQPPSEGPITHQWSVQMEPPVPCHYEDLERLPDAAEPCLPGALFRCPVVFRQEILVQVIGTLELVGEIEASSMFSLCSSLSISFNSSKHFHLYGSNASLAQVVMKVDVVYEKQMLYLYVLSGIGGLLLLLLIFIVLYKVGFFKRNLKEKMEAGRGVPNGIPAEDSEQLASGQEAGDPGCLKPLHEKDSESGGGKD
Sequence (P05107 23-769): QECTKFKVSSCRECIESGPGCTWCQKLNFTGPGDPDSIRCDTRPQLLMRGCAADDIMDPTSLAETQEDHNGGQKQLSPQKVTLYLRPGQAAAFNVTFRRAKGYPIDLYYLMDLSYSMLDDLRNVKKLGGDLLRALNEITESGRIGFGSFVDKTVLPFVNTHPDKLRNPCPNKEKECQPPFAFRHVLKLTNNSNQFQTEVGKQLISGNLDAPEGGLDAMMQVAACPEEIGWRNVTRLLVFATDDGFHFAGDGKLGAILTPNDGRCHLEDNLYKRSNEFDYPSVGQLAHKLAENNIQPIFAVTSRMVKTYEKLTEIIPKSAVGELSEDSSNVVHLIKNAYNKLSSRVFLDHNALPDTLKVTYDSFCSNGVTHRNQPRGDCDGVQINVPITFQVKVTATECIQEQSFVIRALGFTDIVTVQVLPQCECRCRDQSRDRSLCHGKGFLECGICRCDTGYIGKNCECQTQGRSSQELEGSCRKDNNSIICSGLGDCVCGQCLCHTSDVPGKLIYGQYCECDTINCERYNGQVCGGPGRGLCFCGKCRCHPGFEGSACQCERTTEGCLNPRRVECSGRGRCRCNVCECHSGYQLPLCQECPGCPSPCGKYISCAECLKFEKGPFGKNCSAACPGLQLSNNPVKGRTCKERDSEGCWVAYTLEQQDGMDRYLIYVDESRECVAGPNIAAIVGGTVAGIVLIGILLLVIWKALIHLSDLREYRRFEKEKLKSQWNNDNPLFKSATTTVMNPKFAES
experimentalProtocol: Inhibition of LFA-1 binding to ICAM-1 (LFA-1/Biotin-sICAM-1 AlphaScreen molecular assay)
runParameters: highest compound concentration 1 μM in 1% DMSO, 37° C., 90 minutes
measurementLabel: IC50

Q: Name the recorded IC50 of the compound listed here: C[C@@]1(Cc2ccc(C#N)cc2)C(=O)N(c2cc(Cl)cc(Cl)c2)c2ncc(C(=O)NC3(C(=O)NC4(c5ccc(C(=O)N6CCC[C@@H]6C(N)=O)cn5)CC4)CC3)n21 [compound 163]
Ans: 0.65 nM

Q: Provide one value: measured IC50 of C[C@@]1(Cc2ccc(C#N)cc2)C(=O)N(c2cc(Cl)cc(Cl)c2)c2ncc(C(=O)NC3(C(=O)NC4(c5ccc(C(=O)N6CCC(C(N)=O)CC6)cn5)CC4)CC3)n21 [compound 147]
Ans: 1.9 nM

Q: Please report IC50 for the following compound: C[C@@]1(Cc2ccc(C#N)cc2)C(=O)N(c2cc(Cl)cc(Cl)c2)c2ncc(C(=O)NC3(C(=O)NC4(c5cccc(C(=O)NCc6ccccc6)n5)CC4)CC3)n21 [compound 25]
Ans: 32 nM

Q: Please give measured IC50 of the following entry: C[C@@]1(Cc2ccc(C#N)cc2)C(=O)N(c2cc(Cl)cc(Cl)c2)c2ncc(C(=O)NC3(C(=O)NC4(c5cccc(C(=O)N6CCCCC6)n5)CC4)CC3)n21 [compound 16]
Ans: 12 nM

Q: State, in one line, measured IC50 of C[C@@]1(Cc2ccc(C#N)cc2)C(=O)N(c2cc(Cl)cc(Cl)c2)c2ncc(C(=O)NC3(C(=O)NC4(c5cc(C(=O)N6CCC(CO)CC6)ccn5)CC4)CC3)n21 [compound 7]
Ans: 1.4 nM
